The reported numbers originate from the RNAGym collection of RNA variant scans (doi:10.7554/elife.80360).

B1: Hairpin Ribozyme (parent)
chain: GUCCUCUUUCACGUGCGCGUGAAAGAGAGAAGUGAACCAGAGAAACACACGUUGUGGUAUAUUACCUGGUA

variants of: B1; test: self-cleavage, relative activity (ratio to wild type); higher = more cleavage; co-transcriptional

Mutant name | self-cleavage
U9A U67G | 0.152
U5C G29A | 0.106
A26G U60A | 0.763
G25U G56A | 0.21
G25A A41U | 0.85
C3U G19C | 0.373
U7C U62A | 0.288
C4A A30C | 0.0814
A43U U70G | 0.0463
U8C U62G | 0.144
A28G C46A | 0.199
C12A C18A | 0.812
U20C G40A | 0.314
C16U C48A | 0.114
C6U U14G | 0.791
C12U U63G | 0.162
G19C A24U | 0.533
G42U G68C | 0.152
G1C G32U | 0.171
U5A G27U | 0.116
U14A A39G | 0.345
U7G G42C | 0.316
U14G G42C | 0.101
U2C A45U | 0.0729
C6U C65A | 0.776
A11U U60G | 0.509
A36C C38G | 0.117
G27C A59G | 0.0478
U2G U5G | 0.0759
A11C U60G | 0.714
C4G A11U | 0.232
U14A A30C | 0.222
U5C G32A | 0.162
A39C G69A | 0.168
U60A A61U | 0.17
C3A G15C | 0.65
A31U U58C | 0
C10G U33C | 0.0987
C4G A59U | 0.212
A31U A59U | 0.201
A61U U70C | 0.231
A28G C48A | 0.143
C3A C66U | 0.435
A31U G57A | 0.169
C16A A45G | 0.115
A24U C66G | 0.207
G27C U67A | 0.104
U7G U33C | 0.113
U60A U62A | 0.0542
C18U U53A | 1
A11C A28C | 0.481
U14C G25C | 0.728
A22G C38A | 0.147
C10G G56C | 0.149
A43C A47C | 0.0231
A30G G57U | 0.0464
A26C A44C | 0.0715
C66U U70C | 0.506
G17U A30C | 0.176
G1U U52G | 0.143
G34C A35G | 1.4
U33G C46U | 0.16
C37G U53G | 0.238
U7C A22U | 0.642
C37G A61U | 0.155
A30C A31U | 0.129
C10G A23C | 0.416
U7C A30G | 0.0858
G21U U55C | 0.288
G13C G15A | 0.74
U9G A61U | 0.211
G42U C66A | 0.162
A23U A35C | 0.848
C46A G57U | 0.123
C6U U52G | 0.797
A28G A44G | 0.222
A23U A59U | 0.189
C16U U55G | 0.219
A45U U63C | 0.287
